- Protocol text: yeast display, Sf9 membrane polyspecificity reagent, FACS + sequencing; frameworks hold sequencing errors
Experimental readout: polyreactivity (PSR sort gate)

QVQLVESGGGLVHAGGSLRLSCAASGIIFQYYLMGSYRPAPGKERELVAAIDKSGGSTYYADSVKGRFTISRDNAKNTVYLQMNSLKPEDTAVYYCAATSYAHKYYGYFGAIKYEYWGQGTQVTVSS	low polyreactivity
QVQLVESGGGLVQAGGSLRLRCAASGSIFTSYALGWYRQAPGKERELVAAINGSGGSTFYADSVKSRFTISRDNAKYTFYLQMNSLKPEDTAVYYCNTGGPRGTTYDFWGLGTQVTVSS	low polyreactivity
